Listed here are compounds together with their documented IC50.
assay_target: UniProt:P08581
Sequence (P08581 whole entry): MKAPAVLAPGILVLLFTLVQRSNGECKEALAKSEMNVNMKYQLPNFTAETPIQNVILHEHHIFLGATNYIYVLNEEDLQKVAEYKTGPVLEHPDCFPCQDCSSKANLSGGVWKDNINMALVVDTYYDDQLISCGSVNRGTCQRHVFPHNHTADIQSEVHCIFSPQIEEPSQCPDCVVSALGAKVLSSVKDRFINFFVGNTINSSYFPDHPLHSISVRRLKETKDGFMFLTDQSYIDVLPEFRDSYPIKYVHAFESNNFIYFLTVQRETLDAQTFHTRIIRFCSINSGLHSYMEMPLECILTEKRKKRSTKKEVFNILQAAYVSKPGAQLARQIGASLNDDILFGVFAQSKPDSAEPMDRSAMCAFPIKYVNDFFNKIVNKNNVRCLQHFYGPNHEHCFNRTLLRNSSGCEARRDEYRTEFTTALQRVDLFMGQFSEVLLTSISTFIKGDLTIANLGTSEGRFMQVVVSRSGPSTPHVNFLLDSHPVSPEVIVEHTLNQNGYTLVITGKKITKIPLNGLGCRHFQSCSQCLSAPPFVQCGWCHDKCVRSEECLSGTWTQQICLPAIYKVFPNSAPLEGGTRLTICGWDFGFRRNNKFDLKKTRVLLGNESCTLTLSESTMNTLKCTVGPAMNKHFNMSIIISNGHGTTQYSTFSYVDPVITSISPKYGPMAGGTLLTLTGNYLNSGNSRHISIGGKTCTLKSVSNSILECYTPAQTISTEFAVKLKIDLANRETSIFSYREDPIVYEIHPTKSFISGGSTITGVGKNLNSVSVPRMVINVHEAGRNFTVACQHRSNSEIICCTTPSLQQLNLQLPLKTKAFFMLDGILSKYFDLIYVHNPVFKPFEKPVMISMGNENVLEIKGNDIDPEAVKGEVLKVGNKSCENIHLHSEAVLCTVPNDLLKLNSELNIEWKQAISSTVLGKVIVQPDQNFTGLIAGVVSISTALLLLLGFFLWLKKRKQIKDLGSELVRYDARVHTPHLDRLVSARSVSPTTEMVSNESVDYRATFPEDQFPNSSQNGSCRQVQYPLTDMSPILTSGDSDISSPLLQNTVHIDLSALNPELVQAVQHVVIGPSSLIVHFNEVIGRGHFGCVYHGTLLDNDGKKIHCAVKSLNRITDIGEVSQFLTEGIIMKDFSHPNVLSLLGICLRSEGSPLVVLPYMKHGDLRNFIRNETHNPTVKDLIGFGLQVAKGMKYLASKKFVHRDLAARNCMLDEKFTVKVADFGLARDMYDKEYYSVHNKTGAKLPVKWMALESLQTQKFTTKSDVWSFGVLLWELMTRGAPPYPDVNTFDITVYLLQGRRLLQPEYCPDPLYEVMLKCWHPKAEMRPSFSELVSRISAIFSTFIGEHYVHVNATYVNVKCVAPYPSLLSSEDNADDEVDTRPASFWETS
assay_remarks: Inhibition of cMET (unknown origin) using TK substrate-biotin as substrate preincubated with compound followed by substrate addition for 40 mins measured after 1 hr by HTRF assay
// unit must come after the numeric part

Some solved entries appear below for comparison.
CC(C)C(=O)N1CCN(c2nnc3nncn3n2)CC1 ... 23.7 µM
O=C(C1CCCCC1)N1CCN(c2nnc3nncn3n2)CC1 ... 7.9 µM

-- ask // lookup IC50 for c1nnc2nnc(N3CCOCC3)nn12
-- reply 11.8 µM

====

assay_remarks: Toxicity in ICR mouse assessed as mortality at 65.6 mg/kg, ig measured after 14 days
Assay type: organism-based
measurement_parameters: in vivo, po
quantity_kind: mortality at 336 h (%)
Supply the numeric figure in %, leaving out any unit text.

-- ask // lookup mortality at 336 h for c1nnc2nnc(N3CCOCC3)nn12
-- reply 0
